Source listed as paper PMC5540273.

# Test system: CDK3
# condition-details: concentration: 1 μM, replicates: in singlicate; n = 1;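 note: KINOMEscan kinase panel screen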
The entries below are paired with their reported %Inh.
Your answer should be a plain number; it is taken to be in %.

INSERT INTO measurements (structure_smiles_string, numeric_result) VALUES
  ('COc1cccc(CC(=O)N2CCc3cc(-c4cn(C)c5ncnc(N)c45)ccc32)c1', 12),
  ('O=C(Nc1n[nH]c2nc(-c3ccccc3O)ccc12)C1CC1', 22),
  ('c1ccc(Oc2ccc(Nc3ccnc4cc(-c5ccc(CN6CCCCC6)o5)ccc34)cc2)nc1', 7),
  ('CC(C)c1nc(-c2cccc(NS(=O)(=O)c3c(F)cccc3F)c2)c(-c2ccnc(Nc3ccc(N4CCOCC4)nc3)n2)s1.Cl', 99.7),
  ('O=C1NC(=O)C(c2ccccc2Cl)=C1Nc1cccc(Cl)c1', 14),
  ('Cc1ccccc1CC(=O)N1CCc2cc(-c3cn(C)c4ncnc(N)c34)ccc21', 2),
  ('Cc1ccc(Nc2ccnc(Nc3ccc(C)c(F)c3)n2)cc1O.Cl', 0),
  ('Cl.O=C(Nc1ccc(Oc2ccc3[nH]c(NC(=O)c4ccco4)nc3c2)cc1)Nc1cc(C(F)(F)F)ccc1F', 9);

## Task Which %Inh value is on record for Cc1ccc(C)c(NC(=O)Nc2ccc(C)c(-c3ccc(C(=O)Nc4ccncc4)cc3)c2)c1 ?
## Result 0

## Task Another: CCOc1nccc(-c2c(-c3ccc(F)cc3)ncn2C2CCNCC2)n1
## Result 0

## Task Another: O=C(Nc1n[nH]c2nc(-c3cccc(O)c3)ccc12)C1CC1
## Result 49

## Task Another: Cc1ccc(NC(=O)c2cccc(N3CCCCC3)c2)cc1-c1ccc(C(=O)NCC2CC2)cc1
## Result 8

## Task Another: CC(C)c1nc(-c2ccc(F)c(NS(=O)(=O)c3c(F)cccc3F)c2)c(-c2ccnc(Nc3ccc(N4CCOCC4)nc3)n2)s1
## Result 35

## Task Another: O=C(Nc1c(F)cccc1F)c1cc(C(=O)c2ccccc2F)c[nH]1
## Result 16

## Task Another: CN(C)CCNS(=O)(=O)c1ccc(-c2ccnc3[nH]ccc23)cc1
## Result 0

## Task Another: O=C(Nc1n[nH]c2nc(-c3ccccc3)ccc12)C1CC1
## Result 35

## Task Another: Cc1ccc(NC(=O)c2ccc(Cl)c(Cl)c2)cc1-c1ccc(C(=O)Nc2ccncc2)cc1
## Result 5

* * *

The entries below are paired with their reported %Inh.
# Tested on: MYO3B
# condition-details: concentration: 1 μM, replicates: in singlicate; n = 1
Your answer should be a plain number; it is taken to be in %.

INSERT INTO results (compound, measured_endpoint, numeric_result) VALUES
  ('Cl.O=C(Nc1ccc(Oc2ccc3[nH]c(NC(=O)c4ccco4)nc3c2)cc1)Nc1cc(C(F)(F)F)ccc1F [GW683134]', '%Inh', 9),
  ('CN(C)CCOc1ccc(-c2cc(-c3ccc(Cl)c(O)c3)c(-c3ccncc3)[nH]2)cc1.Cl.Cl [SB-684387]', '%Inh', 13);

## Task Which %Inh value is on record for COc1cc(Nc2ccnc3cc(-c4ccncc4)ccc23)cc(OC)c1OC.Cl [GW494610] ?
## Result 6

## Task Another: COC(=O)Nc1nc2cc(Oc3ccc(NC(=O)Nc4cccc(SC)c4)cc3)ccc2[nH]1.Cl [GW697999]
## Result 0
